Test: Maximum dissolving concentration of organic solvent in water (Referential Example 1)
Format: physicochemical
Conditions: solvent as solute in 80 g purified water, 20° C., visual observation
From the text: One species of organic solvent or a mixture of two or more species of solvent to be used in this invention was selected by the following method. […] When any residue of the solute was found in the solution, the confirmation of the solubility mentioned above was repeated, with the quantity of dropwise addition per round decreased. The minimum quantity of the organic solvent or the solvent mixture as the solute to be used for the dropwise addition was set at 0.02 g. […]
Endpoint: Maximum dissolving concentration in water (% by weight)

| Smiles code | Assay value |
| --- | --- |
| Cc1ccccc1C | 0.02 |

[A] CC(C)CC(=O)CC(C)C
[B] CC(C)C(=O)C(C)C
[C] CC(=O)CC(C)C
Query string: Please list these in order of increasing Maximum dissolving concentration in water. Thank you! Your task in answering is to list the labels in the requested order.
Result string: A, B, C
(A: 0.05 % by weight, B: 0.41 % by weight, C: 1.85 % by weight)
